Source of measurements: the array DNA melting data of Ke et al. (doi:10.1101/2024.01.08.574731)

# test details: folding enthalpy; higher = less favourable; fluorescence melt of hairpins on a sequencing array, two-state fit
# measurement context: sodium 0.088 M
readout type: folding enthalpy (kcal/mol)
One number for each entry, in kcal/mol.

Below: 2 sequences and their reported folding enthalpy.
1. GATCTGACCTCAGATC ((((((....)))))) : -38.9
2. GTAGGAGGAAACTCCCAC ((.((((....)))).)) : -16.4

For every record below, what is its folding enthalpy?
1. GGCGACCGAAAGGTAGCC (((.(((....))).)))
2. GGGTGTGGAAACACATCC ((.((((....)))).))
3. GTGGCTGGAAACAGTCAC (((.(((....))).)))
4. GGAGCCGAAAGGCGTCC ((((((....))).)))
5. GATCGCCAGGCGATC ((((((...))))))
6. GTAGGACCGAAAGGTTAC (((..(((....))))))
7. GACTCTGGAAACGGAGTC (((((.(....).)))))

// result
1: -26.2; 2: -26.4; 3: -36.9; 4: -9.6; 5: -35.1; 6: -12.7; 7: -46.5

---

# test details: melting temperature; fluorescence melt of hairpins on a sequencing array, two-state fit, raised by 9.35 °C to match UV melts
# measurement context: sodium 0.088 M
readout type: Tm (°C)
Numbers only, in °C.

Below: 10 sequences and their reported Tm.
1. GAGCGTGGAAACACGCCC (.(((((....))))).) : 47.9
2. GGACTACCGAAAGGTTCC (((..(((....)))))) : 32.8
3. GATCTTTGAGAAGATC ((((((....)))))) : 46
4. GATCGTAGTAACGATC ((((((....)))))) : 55.7
5. CGCAAGAAATTGCG (((((....))))) : 53.3
6. GCATTCGCGAAAGCGTGC (((..(((....)))))) : 41.8
7. GCGAGGCGAAAGCCCAGC ((..(((....)))..)) : 63.4
8. CGACCGGAAACGGAATCG ((((((....)))..))) : 35.7
9. GGAGGTGGAAACGCCTTC (.(((.(....).))).) : 48.5
10. GAGAGACGAAAGTCGCTC (((.(((....))).))) : 60.5

For every record below, what is its Tm?
1. GTCTGGCGAAAGCCTGAC (((.(((....))).)))
2. GACAGCGAAAGCTCGTC ((((((....))).)))

// result
[62, 50.5]

---

For each entry below, report its folding enthalpy value.
# test details: folding enthalpy; higher = less favourable; fluorescence melt of hairpins on a sequencing array, two-state fit
# measurement context: sodium 0.088 M
Answers are plain numbers, in kcal/mol.

Below: 5 sequences and their reported folding enthalpy.
1) GATCTATGTATAGATC ((((((....)))))) : -36.9
2) GGCTCCGAAAGGACTGCC ((((((....)))..))) : -19.1
3) GAAGTACCGAAAGGTTTC (((..(((....)))))) : -9.64
4) GGAGGTGGAAACGCCTTC (.(((.(....).))).) : -26.2
5) GCACTGCGAAAGCCGGGC ((.(.((....)).).)) : -22.7

For every record below, what is its folding enthalpy?
1. GATCGGCAAGCCGATC ((((((....))))))
2. GCTACCCCGAAAGGGAGC (((..(((....))))))
3. GATCACCGAAAGGTAATC (((.(((....))).)))
4. GCACGCGAAAGCGCCTGC ((((((....)))..)))

// result
[-30.5, -22.8, -20.9, -9.69]
